# System Name: Guanine nucleotide-binding protein G(i) subunit alpha-1 (Homo sapiens) (UniProt P63096)
# Sequence (P63096 whole entry): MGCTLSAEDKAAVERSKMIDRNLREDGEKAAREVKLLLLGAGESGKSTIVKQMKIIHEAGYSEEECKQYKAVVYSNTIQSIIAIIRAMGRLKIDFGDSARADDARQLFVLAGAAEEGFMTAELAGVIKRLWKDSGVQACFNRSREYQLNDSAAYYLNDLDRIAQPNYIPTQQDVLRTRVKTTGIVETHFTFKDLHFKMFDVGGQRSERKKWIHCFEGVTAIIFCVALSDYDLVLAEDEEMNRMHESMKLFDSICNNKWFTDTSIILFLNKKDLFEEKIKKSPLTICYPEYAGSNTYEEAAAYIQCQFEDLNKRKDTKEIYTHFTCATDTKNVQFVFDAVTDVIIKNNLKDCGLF
# Method Summary: Activation of human Gi protein alpha1 subunit expressed in Escherichia coli assessed as protein bound [35S]GTPgammaS levels by scintillation spectroscopy
# Format: functional
Active and inactive are the calls of the source. No cut-off for these calls is given here.
Outcome (select one): label 1 = active, label 0 = inactive

Here's what some known entries look like.
CCCCCCCCCNC1CCNCC1 :: label 0
CCOCCOCCOCCNN1CCNCC1 :: label 0
CCCCCCCCCCCCCCCNC1CCN(CCN)CC1 :: label 1
CCOCCOCCOCCOCCN1CCC(C2CCNCC2)CC1 :: label 0
CCCCCCCCCCCCCCCNC1CCN(CCNC(=O)[C@@H](N)CCCCN)CC1 :: label 1

Ask: Just curious, what result did c1ccc(CCCCN2CCC(C3CCNCC3)CC2)cc1 get here?
Result: label 0

Ask: Just curious, what result did CCCCCCCCCCCCCCCNC1CCN(C(=O)[C@@H](N)CCCCN)CC1 get here?
Result: label 1

Ask: Just curious, what result did CCCCCNN1CCNCC1 get here?
Result: label 0

Ask: Just curious, what result did CCCCCCCCCCCCCCC(=O)N1CCC(C2CCN(C(=O)[C@@H](N)CCCCN)CC2)CC1 get here?
Result: label 1

Ask: Just curious, what result did CCCCCN1CCC(C2CCNCC2)CC1 get here?
Result: label 0

Ask: Just curious, what result did CCCCCCCNN1CCNCC1 get here?
Result: label 0

Ask: Just curious, what result did CCCCCCCN1CCC(C2CCNCC2)CC1 get here?
Result: label 0

Ask: Just curious, what result did CCOCCOCCOCCOCCOCCNC1CCNCC1 get here?
Result: label 0

---

# System Name: Guanine nucleotide-binding protein G(i) subunit alpha-1 (Homo sapiens)
# Method Summary: Activation of human Gi protein alpha1 subunit expressed in Escherichia coli assessed as protein bound [35S]GTPgammaS levels at 1 uM by scintillation spectroscopy
# Assay type: functional
Decision: Activity beneath 20 fmol gives True; Activity meeting or exceeding 20 fmol gives False.

Here's what some known entries look like.
CCCCCCCCCCCCCCCNCC1CCN(CCNC=O)CC1 :: True
CCCCCCCCCCCCCCCN1CCC(NC(=O)[C@@H](N)CCCCN)CC1 :: False
CCCCCCCCCCCCCCC(=O)N1CCC(C2CCN(CCN)CC2)CC1 :: False
CCCCCCCCCCCCCCCNC1CCNCC1 :: True

Ask: Say whether its Activity is strictly beneath 20 fmol. Entry: CCCCCCCCCCCCCCCN1CCC(C2CCN(CCN)CC2)CC1
Result: True

---

# System Name: Guanine nucleotide-binding protein G(i) subunit alpha-1 (Homo sapiens) (UniProt P63096)
# Method Summary: Activation of human Gi protein alpha1 subunit expressed in Escherichia coli assessed as protein bound [35S]GTPgammaS levels at 50 uM by scintillation spectroscopy
# Format: functional
Readout: Activity (fmol)
Provide the reading as a plain figure in fmol.

Solved cases below.
CCCCCCCCCCCCCCCNCC1CCN(CCNC=O)CC1 :: 980
CCCCCCCCCCCCCCCN1CCC(C2CCN(CCN)CC2)CC1 :: 2300
CCCCCCCCCCCCCCCNC1CCNCC1 :: 196
CCCCCCCCCCCCCCCN1CCC(C2CCN(CCNC(=O)[C@@H](N)CCCCN)CC2)CC1 :: 781
CCCCCCCCCCCCCCCN1CCC(NC(=O)[C@@H](N)CCCCN)CC1 :: 185

Ask: May I ask what Activity has been recorded for CCCCCCCCCCCCCCC(=O)N1CCC(C2CCN(CCN)CC2)CC1 ?
Result: 103
